System: UACC-62 melanoma
Assay: NCI tumour cell line growth inhibition, 48 h
Reported metric: GI50

Worked set:
C1COCCOCCOCCOCCOCCO1.[Cl][Sn]([Cl])([c]1ccccc1)[c]1ccccc1 | 1.86 µM
CN1CC[C@]2(c3cccc(O)c3)CC(=O)/C(=C/c3ccccc3)[C@H]1C2 | 3.06 µM

Returns the measured GI50 for the input compound. Input: "Clc1nc(Cl)c2c3c(sc2n1)CCCC3" > 100 µM

Please give the measured GI50 for this compound: "N#Cc1ccsc1NC(=O)COC(=O)c1cccc(S(=O)(=O)N2CCc3ccccc32)c1" 32 µM

Give its GI50 value. Item: "CC(=O)c1ccc(Nc2nc(Nc3ccc(F)cc3)nc(Nc3ccc(F)cc3)n2)cc1" 28.9 µM

GI50 for O=c1c2c(c3ccccc3n1-c1ccccc1)NC(=S)NC2c1ccc(Cl)cc1 (configuration not stated) ? 1.49 µM

I have this compound here, Nc1nc2c(nnn2C2OC(CO)C(O)C2O)c(=O)[nH]1 (configuration not stated) , and I need its recorded GI50. 1.14 µM
